Numbers sourced from patent US20240270698A2.

- Tested on: HS746T cancer cells
- Experiment description: Anticancer activity, cell viability by CCK-8, HS746T
- Format: cell-based
- Assay setup: 72 hours
Measurement label: Cell viability (% of Con. 10 μM) HS746T

// CP(C)(=O)c1ccccc1Nc1nc(Nc2cnc3[nH]ccc3c2)ncc1Cl : Cell viability (% of Con. 10 μM) HS746T value = 19 % of Con.

// CP(C)(=O)c1ccccc1Nc1nc(Nc2ccc3c(c2)C(=O)NCC3)ncc1Cl : Cell viability (% of Con. 10 μM) HS746T value = 33 % of Con.

====

- Test system: HS746T cancer cells
- Experiment description: Anticancer activity, cell viability by CCK-8, HS746T
- Type: cell-based
- Assay setup: 72 hours
Measurement label: Cell viability (% of Con. 10 μM) HS746T

CS(=O)(=O)N1CCC(Nc2nc(Nc3ccnc4c(F)cccc34)ncc2F)CC1; 90 % of Con.
CC1(C)NCCc2ccc(Nc3ncc(Cl)c(Nc4ccccc4P(C)(C)=O)n3)cc21; 17 % of Con.

// Cc1ccc(Nc2ncc(Cl)c(Nc3ccccc3P(C)(C)=O)n2)c2[nH]cc(C#N)c12 : Cell viability (% of Con. 10 μM) HS746T value = 25 % of Con.

// CP(C)(=O)c1ccccc1Nc1nc(Nc2ccc3[nH]nc(-c4cccnc4F)c3c2)ncc1Cl : Cell viability (% of Con. 10 μM) HS746T value = 11 % of Con.

====

Each entry below lists one item and its recorded IC50 value.
- Measurement target: human recombinant LRRK2 protein (Homo sapiens)
- Sequence (Q5S007 whole entry): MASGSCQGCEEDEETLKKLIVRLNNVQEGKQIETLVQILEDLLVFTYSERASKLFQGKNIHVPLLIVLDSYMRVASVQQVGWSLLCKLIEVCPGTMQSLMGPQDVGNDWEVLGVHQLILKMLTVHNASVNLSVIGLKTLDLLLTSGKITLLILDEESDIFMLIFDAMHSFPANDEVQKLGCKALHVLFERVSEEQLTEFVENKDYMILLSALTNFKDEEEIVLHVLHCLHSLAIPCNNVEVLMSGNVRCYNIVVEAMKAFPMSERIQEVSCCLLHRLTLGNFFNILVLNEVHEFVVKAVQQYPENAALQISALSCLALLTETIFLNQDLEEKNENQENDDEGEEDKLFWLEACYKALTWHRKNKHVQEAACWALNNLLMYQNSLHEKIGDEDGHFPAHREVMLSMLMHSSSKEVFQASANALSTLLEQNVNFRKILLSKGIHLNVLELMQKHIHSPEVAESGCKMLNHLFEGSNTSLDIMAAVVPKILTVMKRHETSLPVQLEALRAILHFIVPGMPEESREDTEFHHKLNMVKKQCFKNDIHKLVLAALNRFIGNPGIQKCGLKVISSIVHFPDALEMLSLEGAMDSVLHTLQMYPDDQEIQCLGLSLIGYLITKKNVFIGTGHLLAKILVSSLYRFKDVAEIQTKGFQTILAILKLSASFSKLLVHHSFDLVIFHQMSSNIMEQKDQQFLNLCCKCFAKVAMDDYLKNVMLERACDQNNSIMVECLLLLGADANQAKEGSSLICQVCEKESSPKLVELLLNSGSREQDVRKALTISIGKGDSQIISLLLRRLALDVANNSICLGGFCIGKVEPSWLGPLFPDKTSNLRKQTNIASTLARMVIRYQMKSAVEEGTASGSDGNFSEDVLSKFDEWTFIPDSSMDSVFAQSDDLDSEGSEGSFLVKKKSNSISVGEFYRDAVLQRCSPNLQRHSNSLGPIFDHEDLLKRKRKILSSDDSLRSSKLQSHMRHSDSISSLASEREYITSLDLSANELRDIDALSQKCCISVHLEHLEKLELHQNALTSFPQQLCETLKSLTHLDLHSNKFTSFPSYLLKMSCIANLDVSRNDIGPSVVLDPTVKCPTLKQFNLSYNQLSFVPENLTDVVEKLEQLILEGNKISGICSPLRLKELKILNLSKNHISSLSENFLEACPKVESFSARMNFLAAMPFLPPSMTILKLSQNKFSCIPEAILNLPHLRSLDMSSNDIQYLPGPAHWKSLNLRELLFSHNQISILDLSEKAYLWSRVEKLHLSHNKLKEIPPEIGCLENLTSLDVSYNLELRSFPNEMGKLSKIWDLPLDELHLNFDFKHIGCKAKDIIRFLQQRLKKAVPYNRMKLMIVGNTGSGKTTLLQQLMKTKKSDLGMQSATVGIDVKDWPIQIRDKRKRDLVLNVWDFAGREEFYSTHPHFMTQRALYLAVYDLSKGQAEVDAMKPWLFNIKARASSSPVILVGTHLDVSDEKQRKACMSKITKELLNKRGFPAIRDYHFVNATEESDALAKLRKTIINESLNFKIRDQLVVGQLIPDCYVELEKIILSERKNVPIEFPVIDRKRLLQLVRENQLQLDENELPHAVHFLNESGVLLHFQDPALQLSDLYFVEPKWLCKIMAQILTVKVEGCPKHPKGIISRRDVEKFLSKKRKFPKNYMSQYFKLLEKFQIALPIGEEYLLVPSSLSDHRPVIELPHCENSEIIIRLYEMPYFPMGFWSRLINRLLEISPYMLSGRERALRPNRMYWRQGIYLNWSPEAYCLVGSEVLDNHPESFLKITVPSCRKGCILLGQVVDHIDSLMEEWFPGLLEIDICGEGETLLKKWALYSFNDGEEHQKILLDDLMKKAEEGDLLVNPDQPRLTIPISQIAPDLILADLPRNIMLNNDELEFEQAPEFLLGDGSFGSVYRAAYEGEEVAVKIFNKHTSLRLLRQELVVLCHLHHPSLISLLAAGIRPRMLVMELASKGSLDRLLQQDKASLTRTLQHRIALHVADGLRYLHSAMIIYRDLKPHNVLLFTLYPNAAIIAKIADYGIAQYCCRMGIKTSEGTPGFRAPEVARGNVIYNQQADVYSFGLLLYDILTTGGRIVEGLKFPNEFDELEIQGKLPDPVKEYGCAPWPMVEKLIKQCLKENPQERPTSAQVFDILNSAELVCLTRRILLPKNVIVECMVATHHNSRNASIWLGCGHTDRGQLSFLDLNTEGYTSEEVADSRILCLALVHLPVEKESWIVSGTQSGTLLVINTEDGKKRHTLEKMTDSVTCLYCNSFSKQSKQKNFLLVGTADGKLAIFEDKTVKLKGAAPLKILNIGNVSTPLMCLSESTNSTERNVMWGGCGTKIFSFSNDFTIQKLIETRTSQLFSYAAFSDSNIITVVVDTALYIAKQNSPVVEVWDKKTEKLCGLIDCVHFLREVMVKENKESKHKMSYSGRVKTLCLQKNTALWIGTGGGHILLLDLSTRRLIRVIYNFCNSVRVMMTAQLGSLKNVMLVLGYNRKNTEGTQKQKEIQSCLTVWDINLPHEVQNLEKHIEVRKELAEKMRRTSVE
- Experiment description: LRRK2 kinase activity assay (Eurofins, gamma-33P-ATP, filtermat scintillation counting)
- Assay setup: human recombinant LRRK2, 40 minutes at room temperature

Record excerpt, results attached:
CC1NCCc2ccc(Nc3ncc(Cl)c(Nc4ccccc4P(C)(C)=O)n3)cc21 (stereo not shown); 1 to 10 nM
Cc1nc2ccc(Nc3ncc(Cl)c(Nc4ccccc4P(C)(C)=O)n3)cc2s1; 1 to 10 nM
CC(C)Oc1cc(F)cc(-c2n[nH]c3ccc(Nc4ncc(Cl)c(Nc5ccccc5P(C)(C)=O)n4)cc23)c1; 1 to 10 nM
CP(C)(=O)c1ccccc1Nc1nc(Nc2ccc3[nH]nc(-c4ccc(O)cc4)c3c2)ncc1Cl; 10 to 100 nM
CP(C)(=O)c1ccccc1Nc1nc(Nc2ccc3c(c2)CN(C(=O)C(F)(F)F)C3)ncc1Cl; 1 to 10 nM

// CP(C)(=O)c1ccccc1Nc1nc(Nc2ccc3[nH]c(C(F)(F)F)nc3c2)ncc1Cl : IC50 value = 1 to 10 nM

// CC(C)C1c2cc(Nc3ncc(Cl)c(Nc4ccccc4P(C)(C)=O)n3)ccc2CCN1C(=O)C(F)(F)F (stereo not shown) : IC50 value = 1 to 10 nM

// CS(=O)(=O)N1CCC(Nc2nc(Nc3ccnc4c(F)cccc34)ncc2F)CC1 : IC50 value = 100 to 1000 nM

// CP(C)(=O)c1ccccc1Nc1nc(Nc2ccc3c(c2)CCN(C(=O)C(F)(F)F)C3)ncc1Cl : IC50 value = 1 to 10 nM

// CP(C)(=O)c1ccccc1Nc1nc(Nc2ccc3c(c2)CNC3)ncc1Cl : IC50 value = 1 to 10 nM

====

Each entry below lists one item and its recorded IC50 value.
- Measurement target: human recombinant LRRK2 protein (Homo sapiens)
- Experiment description: LRRK2 kinase activity assay (Eurofins, gamma-33P-ATP, filtermat scintillation counting)
- Assay setup: human recombinant LRRK2, 40 minutes at room temperature

CP(C)(=O)c1ccccc1Nc1nc(Nc2ccc3[nH]nc(-c4ccncc4)c3c2)ncc1Cl; 1 to 10 nM
CP(C)(=O)c1ccccc1Nc1nc(Nc2ccc3[nH]nc(-c4cn[nH]c4)c3c2)ncc1Cl; 1 to 10 nM
CC(C)S(=O)(=O)c1ccccc1Nc1nc(Nc2cc(C(F)(F)F)cc(C(F)(F)F)c2)ncc1Cl; 100 to 1000 nM
CP(C)(=O)c1ccccc1Nc1nc(Nc2ccc3[nH]nc(-c4ccc(C=O)o4)c3c2)ncc1Cl; 1 to 10 nM
CP(C)(=O)c1ccccc1Nc1nc(Nc2ccc3ncccc3c2)ncc1Cl; 1 to 10 nM
CC1c2cc(Nc3ncc(Cl)c(Nc4ccccc4P(C)(C)=O)n3)ccc2CCN1C(=O)C(F)(F)F (stereo not shown); 1 to 10 nM
CP(C)(=O)c1ccccc1Nc1nc(Nc2ccc3c(c2)C(=O)NCC3)ncc1Cl; 10 to 100 nM
CP(C)(=O)c1ccccc1Nc1nc(Nc2ccc3[nH]nc(-c4ccccc4)c3c2)ncc1Cl; 1 to 10 nM

Please look at the following compound next.
// CN(C)c1ncc(F)c(NC2CCN(S(C)(=O)=O)CC2)n1 : IC50 value = > 1000 nM

====

- Tested on: HS746T cancer cells
- Experiment description: Anticancer activity, cell viability by CCK-8, HS746T
- Format: cell-based
- Assay setup: 72 hours
Measurement label: Cell viability (% of Con. 10 μM) HS746T

Record excerpt, results attached:
CP(C)(=O)c1ccccc1Nc1nc(Nc2ccc3[nH]ccc3c2)ncc1Cl; 23 % of Con.
CC(C)(C)OC(=O)N1CCN(c2ccc(-c3n[nH]c4ccc(Nc5ncc(Cl)c(Nc6ccccc6P(C)(C)=O)n5)cc34)cc2)CC1; 20 % of Con.
CP(C)(=O)c1ccccc1Nc1nc(Nc2ccc3c(c2)CNCC3)ncc1Cl; 8 % of Con.
Cc1ccc(-c2n[nH]c3ccc(Nc4ncc(Cl)c(Nc5ccccc5P(C)(C)=O)n4)cc23)cc1Cl; 7 % of Con.
CP(C)(=O)c1ccccc1Nc1nc(Nc2cccc3cc[nH]c23)ncc1Cl; 83 % of Con.

// CP(C)(=O)c1ccccc1Nc1nc(Nc2ccc3c(c2)CN(C(=O)C(F)(F)F)CC3)ncc1Cl : Cell viability (% of Con. 10 μM) HS746T value = 13 % of Con.

// CC(C)n1cc(-c2n[nH]c3ccc(Nc4ncc(Cl)c(Nc5ccccc5P(C)(C)=O)n4)cc23)cn1 : Cell viability (% of Con. 10 μM) HS746T value = 18 % of Con.

// CC(C)C1NCCc2ccc(Nc3ncc(Cl)c(Nc4ccccc4P(C)(C)=O)n3)cc21 (stereo not shown) : Cell viability (% of Con. 10 μM) HS746T value = 2 % of Con.

====

- Measurement target: human recombinant MLK3 protein (Homo sapiens)
- Sequence (Q16584 whole entry): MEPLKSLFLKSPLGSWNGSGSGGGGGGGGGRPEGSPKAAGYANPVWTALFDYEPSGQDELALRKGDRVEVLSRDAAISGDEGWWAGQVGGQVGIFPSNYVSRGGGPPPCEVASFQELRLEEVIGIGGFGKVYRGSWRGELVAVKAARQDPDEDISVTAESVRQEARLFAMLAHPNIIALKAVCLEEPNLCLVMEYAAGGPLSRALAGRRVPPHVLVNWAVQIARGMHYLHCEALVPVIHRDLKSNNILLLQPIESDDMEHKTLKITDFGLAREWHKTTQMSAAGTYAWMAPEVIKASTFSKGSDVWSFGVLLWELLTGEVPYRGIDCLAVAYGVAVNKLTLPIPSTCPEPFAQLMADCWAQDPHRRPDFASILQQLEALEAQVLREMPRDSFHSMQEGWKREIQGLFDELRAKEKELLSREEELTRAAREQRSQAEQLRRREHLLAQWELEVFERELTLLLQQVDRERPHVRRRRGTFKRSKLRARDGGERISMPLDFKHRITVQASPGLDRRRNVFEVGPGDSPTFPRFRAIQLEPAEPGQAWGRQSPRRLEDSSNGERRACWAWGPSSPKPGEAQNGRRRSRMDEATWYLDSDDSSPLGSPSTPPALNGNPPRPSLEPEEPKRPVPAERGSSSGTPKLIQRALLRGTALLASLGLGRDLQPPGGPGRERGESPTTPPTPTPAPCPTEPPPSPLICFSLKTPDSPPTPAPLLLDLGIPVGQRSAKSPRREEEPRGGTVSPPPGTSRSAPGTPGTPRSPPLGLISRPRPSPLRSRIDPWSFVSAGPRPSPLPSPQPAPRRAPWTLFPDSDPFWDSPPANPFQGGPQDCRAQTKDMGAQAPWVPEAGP
- Experiment description: MLK3 kinase activity assay (Eurofins, gamma-33P-ATP, filtermat scintillation counting)
- Assay setup: human recombinant MLK3, 120 minutes at room temperature
Each entry below lists one item and its recorded IC50 value.

Record excerpt, results attached:
CP(C)(=O)c1ccccc1Nc1nc(Nc2ccc3[nH]ccc3c2)ncc1Cl; 1 to 10 nM
CC(=O)c1ccc(-c2n[nH]c3ccc(Nc4ncc(Cl)c(Nc5ccccc5P(C)(C)=O)n4)cc23)cc1; 1 to 10 nM
CC(C)S(=O)(=O)c1ccccc1Nc1nc(Nc2cc(F)c(Br)c(F)c2)ncc1Cl; 100 to 1000 nM

// CC(=O)N1CC=C(c2n[nH]c3ccc(Nc4ncc(Cl)c(Nc5ccccc5P(C)(C)=O)n4)cc23)CC1 : IC50 value = 1 to 10 nM

// CP(C)(=O)c1ccccc1Nc1nc(Nc2cnc3[nH]ccc3c2)ncc1Cl : IC50 value = 10 to 100 nM

// CP(C)(=O)c1ccccc1Nc1nc(Nc2ccc3[nH]nc(-c4ccc(OC(F)(F)F)cc4)c3c2)ncc1Cl : IC50 value = 1 to 10 nM

====

- Tested on: HepG2 cancer cells
- Experiment description: Anticancer activity, cell viability by CCK-8, HepG2
- Type: cell-based
- Assay setup: HepG2, 10 μM, 72 hours
- Description: Compounds 1 to 119 synthesized in Example 1 according to the present disclosure were assayed for inhibitory activity against MLK3/LRRK2 enzymes and anticancer activity against HepG2/H[…] cancer cells, and the results are summarized in Table 1, below. Assay for anticancer activity was conducted as follows. […] Then, cell viability was assayed using CCK-8 and expressed as % of the control.
Each entry below lists one item and its recorded Cell viability (% of Con. 10 μM) HepG2 value.

CP(C)(=O)c1ccccc1Nc1nc(Nc2ccc3[nH]nc(-c4ccc(Cl)c(C(F)(F)F)c4)c3c2)ncc1Cl; 7 % of Con.
CP(C)(=O)c1ccccc1Nc1nc(Nc2cnc3ccccc3c2)ncc1Cl; 34 % of Con.
CP(C)(=O)c1ccccc1Nc1nc(Nc2ccc3c(c2)CNCC3)ncc1Cl; 24 % of Con.
CP(C)(=O)c1ccccc1Nc1nc(NCc2ccc(F)cc2)ncc1Cl; 85 % of Con.
CP(C)(=O)c1ccccc1Nc1nc(Nc2ccc3c(c2)C(=O)NCC3)ncc1Cl; 26 % of Con.
CP(C)(=O)c1ccccc1Nc1nc(Nc2ccc3nc(S)sc3c2)ncc1Cl; 27 % of Con.
CP(C)(=O)c1ccccc1Nc1nc(Nc2ccc3cn[nH]c3c2)ncc1Cl; 23 % of Con.
CP(C)(=O)c1ccccc1Nc1nc(Nc2ccc3[nH]nc(-c4ccc(S(C)(=O)=O)cc4)c3c2)ncc1Cl; 68 % of Con.
CC(C)C1NCCc2ccc(Nc3ncc(Cl)c(Nc4ccccc4P(C)(C)=O)n3)cc21 (centres unmarked); 19 % of Con.
CP(C)(=O)c1ccccc1Nc1nc(Nc2ccc3ncccc3c2)ncc1Cl; 32 % of Con.

// CC(=O)c1ccc(-c2n[nH]c3ccc(Nc4ncc(Cl)c(Nc5ccccc5P(C)(C)=O)n4)cc23)cc1 : Cell viability (% of Con. 10 μM) HepG2 value = 75 % of Con.

// Cc1nc2ccc(Nc3ncc(Cl)c(Nc4ccccc4P(C)(C)=O)n3)cc2s1 : Cell viability (% of Con. 10 μM) HepG2 value = 35 % of Con.

// CC(C)C1c2cc(Nc3ncc(Cl)c(Nc4ccccc4P(C)(C)=O)n3)ccc2CCN1C(=O)C(F)(F)F (centres unmarked) : Cell viability (% of Con. 10 μM) HepG2 value = 23 % of Con.

// CP(C)(=O)c1ccccc1Nc1nc(Nc2cccc3[nH]ccc23)ncc1Cl : Cell viability (% of Con. 10 μM) HepG2 value = 43 % of Con.

// CN(C)c1ncc(F)c(NC2CCN(S(C)(=O)=O)CC2)n1 : Cell viability (% of Con. 10 μM) HepG2 value = 100 % of Con.

// CC1NCCc2ccc(Nc3ncc(Cl)c(Nc4ccccc4P(C)(C)=O)n3)cc21 (centres unmarked) : Cell viability (% of Con. 10 μM) HepG2 value = 24 % of Con.

// Cc1cccc2sc(Nc3ncc(Cl)c(Nc4ccccc4P(C)(C)=O)n3)nc12 : Cell viability (% of Con. 10 μM) HepG2 value = 81 % of Con.
